# measured-target: rKOR (Rattus norvegicus, UniProt P34975)
# Sequence (P34975 whole entry): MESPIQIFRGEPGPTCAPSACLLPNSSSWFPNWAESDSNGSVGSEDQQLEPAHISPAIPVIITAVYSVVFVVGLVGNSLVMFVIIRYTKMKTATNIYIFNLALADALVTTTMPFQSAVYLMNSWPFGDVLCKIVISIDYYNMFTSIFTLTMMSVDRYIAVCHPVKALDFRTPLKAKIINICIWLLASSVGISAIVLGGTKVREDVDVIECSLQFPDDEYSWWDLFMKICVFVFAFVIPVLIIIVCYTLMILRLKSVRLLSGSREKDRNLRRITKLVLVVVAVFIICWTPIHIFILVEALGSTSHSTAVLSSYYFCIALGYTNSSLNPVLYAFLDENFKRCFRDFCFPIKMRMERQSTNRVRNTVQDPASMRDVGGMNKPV
# condition-parameters: vs U50,488h
metric-name: ΔlogRA BRET-G rKOR

# compound, measured-target, readout-value
data = [
    ("O=C(NC1C=CC2C3Cc4ccc(O)c5c4C2(CCN3CC2CC2)C1O5)c1cccc(I)c1 (stereo not shown)", "rKOR (Rattus norvegicus, UniProt P34975)", "1.067±0.064"),
    ("O=C(N[C@@H]1CC[C@@]2(O)C3Cc4ccc(O)cc4[C@@]2(CCN3CC2CC2)C1)c1cccc(I)c1", "rKOR (Rattus norvegicus, UniProt P34975)", "0.324±0.052"),
    ("O=C(N[C@@H]1CCC2C3Cc4ccc(O)c5c4[C@@]2(CCN3CC2CC2)C1O5)c1cccc(I)c1 (stereo partly shown)", "rKOR (Rattus norvegicus, UniProt P34975)", "1.594±0.117"),
    ("O=C(NC1CCC2(O)C3Cc4ccc(O)c5c4C2(CCN3CC2CC2)C1O5)c1cccc(I)c1 (stereo not shown)", "rKOR (Rattus norvegicus, UniProt P34975)", "2.64±0.175"),
]

---

# measured-target: DOR (Homo sapiens, UniProt P41143)
# Sequence (P41143 whole entry): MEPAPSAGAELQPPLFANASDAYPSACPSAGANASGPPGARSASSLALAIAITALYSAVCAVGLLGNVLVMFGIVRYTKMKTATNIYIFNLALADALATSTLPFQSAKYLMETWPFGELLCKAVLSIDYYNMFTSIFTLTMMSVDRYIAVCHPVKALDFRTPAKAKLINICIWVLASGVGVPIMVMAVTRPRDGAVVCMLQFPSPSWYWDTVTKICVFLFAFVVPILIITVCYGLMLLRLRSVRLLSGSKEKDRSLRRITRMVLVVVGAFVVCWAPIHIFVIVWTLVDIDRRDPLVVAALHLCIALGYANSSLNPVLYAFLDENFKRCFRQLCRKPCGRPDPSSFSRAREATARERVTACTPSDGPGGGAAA
# assay-remarks: cell-based
# condition-parameters: EC50 cAMP inhibition hDOR
pEC50: −log10 of the molar value.
The reader will find reported pEC50 values listed item by item below.
metric-name: pEC50

# compound, metric-name, readout-value
measured = [
    ("CO[C@@]12CC[C@@H](NC(=O)c3cccc(I)c3)C3Oc4c(O)ccc5c4[C@@]31CCN(CC1CC1)C2C5 (stereo partly shown)", "pEC50", 7.13),
    ("O=C(NC1C=CC2C3Cc4ccc(O)c5c4C2(CCN3CC2CC2)C1O5)c1cccc(I)c1 (stereo not shown)", "pEC50", 9.40),
    ("O=C(N[C@@H]1CC[C@@]2(O)C3Cc4ccc(O)cc4[C@@]2(CCN3CC2CC2)C1)c1cccc(I)c1", "pEC50", 8.56),
    ("NCc1cccc(C(=O)N[C@@H]2CCC3C4Cc5ccc(O)c6c5[C@@]3(CCN4CC3CC3)C2O6)c1 (stereo partly shown)", "pEC50", 7.94),
    ("N=C(N)NCc1cccc(C(=O)N[C@@H]2CCC3C4Cc5ccc(O)c6c5[C@@]3(CCN4CC3CC3)C2O6)c1 (stereo partly shown)", "pEC50", 8.60),
    ("O=C(N[C@@H]1CCC2C3Cc4ccc(O)c5c4[C@@]2(CCN3CC2CC2)C1O5)c1cccc(I)c1 (stereo partly shown)", "pEC50", 8.09),
    ("O=C(NC1CCC2(O)C3Cc4ccc(O)c5c4C2(CCN3CC2CC2)C1O5)c1cccc(I)c1 (stereo not shown)", "pEC50", 9.37),
]

---

The reader will find reported ΔlogRA Tango hMOR values listed item by item below.
# measured-target: MOR (Homo sapiens)
# Sequence (P35372 whole entry): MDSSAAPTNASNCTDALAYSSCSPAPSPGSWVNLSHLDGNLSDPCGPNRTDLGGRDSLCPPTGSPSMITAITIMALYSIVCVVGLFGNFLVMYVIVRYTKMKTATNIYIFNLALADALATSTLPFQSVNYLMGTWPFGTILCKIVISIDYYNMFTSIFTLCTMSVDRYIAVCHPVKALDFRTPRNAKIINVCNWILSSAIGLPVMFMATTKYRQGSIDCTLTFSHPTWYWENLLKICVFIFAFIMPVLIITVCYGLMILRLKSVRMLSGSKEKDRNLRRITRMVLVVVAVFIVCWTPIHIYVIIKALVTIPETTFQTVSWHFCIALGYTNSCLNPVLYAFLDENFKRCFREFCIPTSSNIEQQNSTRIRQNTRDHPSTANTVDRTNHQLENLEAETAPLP

# compound, ΔlogRA Tango hMOR
data = [
    ("O=C(N[C@@H]1CCC2C3Cc4ccc(O)c5c4[C@@]2(CCN3CC2CC2)C1O5)c1cccc(I)c1 (some centres unmarked)", 0.058),
    ("CO[C@@]12CC[C@@H](NC(=O)c3cccc(I)c3)C3Oc4c(O)ccc5c4[C@@]31CCN(CC1CC1)C2C5 (some centres unmarked)", 0.109),
    ("O=C(NC1CCC2(O)C3Cc4ccc(O)c5c4C2(CCN3CC2CC2)C1O5)c1cccc(I)c1 (centres unmarked)", -0.25),
    ("O=C(NC1C=CC2C3Cc4ccc(O)c5c4C2(CCN3CC2CC2)C1O5)c1cccc(I)c1 (centres unmarked)", 1.26),
    ("O=C(N[C@@H]1CC[C@@]2(O)C3Cc4ccc(O)cc4[C@@]2(CCN3CC2CC2)C1)c1cccc(I)c1", 0.87),
]

---

The reader will find reported EC50 values listed item by item below.
# measured-target: KOR (Homo sapiens, UniProt P41145)
# Sequence (P41145 whole entry): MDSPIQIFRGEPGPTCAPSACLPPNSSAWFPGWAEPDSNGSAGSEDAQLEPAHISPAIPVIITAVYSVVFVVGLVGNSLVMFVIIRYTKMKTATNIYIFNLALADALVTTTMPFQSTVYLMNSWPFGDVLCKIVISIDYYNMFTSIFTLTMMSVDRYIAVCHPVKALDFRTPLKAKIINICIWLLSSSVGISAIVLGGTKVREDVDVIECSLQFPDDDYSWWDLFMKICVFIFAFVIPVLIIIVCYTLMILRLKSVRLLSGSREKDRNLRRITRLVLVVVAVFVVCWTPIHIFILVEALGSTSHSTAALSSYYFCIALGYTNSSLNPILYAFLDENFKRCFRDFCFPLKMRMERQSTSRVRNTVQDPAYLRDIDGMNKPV
# assay-remarks: cell-based
# condition-parameters: EC50 arrestin recruitment (Tango) hKOR
metric-name: EC50 (nM)

# compound, units-text, readout-value
measured = [
    ("NCc1cccc(C(=O)N[C@@H]2CCC3C4Cc5ccc(O)c6c5[C@@]3(CCN4CC3CC3)C2O6)c1 (some centres unmarked) [MP1207]", "nM", 3.97),
    ("O=C(N[C@@H]1CC[C@@]2(O)C3Cc4ccc(O)cc4[C@@]2(CCN3CC2CC2)C1)c1cccc(I)c1 [MP1601]", "nM", 3.23),
    ("N=C(N)NCc1cccc(C(=O)N[C@@H]2CCC3C4Cc5ccc(O)c6c5[C@@]3(CCN4CC3CC3)C2O6)c1 (some centres unmarked) [MP1208]", "nM", 16.4),
    ("O=C(N[C@@H]1CC[C@H]2[C@H]3Cc4ccc(O)c5c4[C@@]2(CCN3CC2CC2)[C@H]1O5)c1cccc(CO)c1 [MP1210]", "nM", 1.16),
    ("O=C(NC1CCC2(O)C3Cc4ccc(O)c5c4C2(CCN3CC2CC2)C1O5)c1cccc(I)c1 (centres unmarked) [IBNtxA]", "nM", 0.013),
    ("O=C(N[C@@H]1CCC2C3Cc4ccc(O)c5c4[C@@]2(CCN3CC2CC2)C1O5)c1cccc(I)c1 (some centres unmarked) [MP1202]", "nM", 0.0457),
    ("CO[C@@]12CC[C@@H](NC(=O)c3cccc(I)c3)C3Oc4c(O)ccc5c4[C@@]31CCN(CC1CC1)C2C5 (some centres unmarked) [MP1305]", "nM", 25.7),
    ("O=C(NC1C=CC2C3Cc4ccc(O)c5c4C2(CCN3CC2CC2)C1O5)c1cccc(I)c1 (centres unmarked) [MP1104]", "nM", 0.0394),
]

---

# measured-target: mKOR (Mus musculus, UniProt P33534)
# Sequence (P33534 whole entry): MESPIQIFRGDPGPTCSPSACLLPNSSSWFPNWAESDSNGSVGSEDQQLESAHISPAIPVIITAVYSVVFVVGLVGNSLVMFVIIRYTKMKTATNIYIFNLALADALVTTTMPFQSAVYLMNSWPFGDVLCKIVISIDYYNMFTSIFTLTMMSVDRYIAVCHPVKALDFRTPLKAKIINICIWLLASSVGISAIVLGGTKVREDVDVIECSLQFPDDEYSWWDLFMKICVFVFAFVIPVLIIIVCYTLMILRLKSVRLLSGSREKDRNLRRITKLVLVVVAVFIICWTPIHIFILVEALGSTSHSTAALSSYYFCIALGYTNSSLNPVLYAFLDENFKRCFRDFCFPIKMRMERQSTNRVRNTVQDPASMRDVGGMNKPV
pKi: −log10 of the molar value.

# molecule, pKi
data = [
    ("N=C(N)NCc1cccc(C(=O)N[C@@H]2CCC3C4Cc5ccc(O)c6c5[C@@]3(CCN4CC3CC3)C2O6)c1 (stereo partly drawn) [MP1208]", 9.55),
    ("O=C(NC1C=CC2C3Cc4ccc(O)c5c4C2(CCN3CC2CC2)C1O5)c1cccc(I)c1 (stereo not drawn) [MP1104]", 11.19),
    ("NCc1cccc(C(=O)N[C@@H]2CCC3C4Cc5ccc(O)c6c5[C@@]3(CCN4CC3CC3)C2O6)c1 (stereo partly drawn) [MP1207]", 9.41),
    ("O=C(N[C@@H]1CCC2C3Cc4ccc(O)c5c4[C@@]2(CCN3CC2CC2)C1O5)c1cccc(I)c1 (stereo partly drawn) [MP1202]", 9.96),
    ("CO[C@@]12CC[C@@H](NC(=O)c3cccc(I)c3)C3Oc4c(O)ccc5c4[C@@]31CCN(CC1CC1)C2C5 (stereo partly drawn) [MP1305]", 8.60),
    ("O=C(N[C@@H]1CC[C@@]2(O)C3Cc4ccc(O)cc4[C@@]2(CCN3CC2CC2)C1)c1cccc(I)c1 [MP1601]", 8.67),
]

---

# measured-target: mMOR (Mus musculus, UniProt P42866)
# Sequence (P42866 whole entry): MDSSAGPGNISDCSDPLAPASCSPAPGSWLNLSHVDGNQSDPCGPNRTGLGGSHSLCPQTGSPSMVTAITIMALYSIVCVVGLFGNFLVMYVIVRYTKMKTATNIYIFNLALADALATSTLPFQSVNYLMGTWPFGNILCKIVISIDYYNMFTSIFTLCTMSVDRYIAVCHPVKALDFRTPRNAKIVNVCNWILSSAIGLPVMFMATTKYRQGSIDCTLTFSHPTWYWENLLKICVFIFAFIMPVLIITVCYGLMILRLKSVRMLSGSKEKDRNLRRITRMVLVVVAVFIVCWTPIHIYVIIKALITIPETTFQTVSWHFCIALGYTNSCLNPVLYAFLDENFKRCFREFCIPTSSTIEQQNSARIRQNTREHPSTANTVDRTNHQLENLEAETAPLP
# assay-remarks: cell-based
# condition-parameters: EC50 G protein activation (BRET) mMOR
pEC50: −log10 of the molar value.
The reader will find reported pEC50 values listed item by item below.

# compound, pEC50
records = [
    ("NCc1cccc(C(=O)N[C@@H]2CCC3C4Cc5ccc(O)c6c5[C@@]3(CCN4CC3CC3)C2O6)c1 (stereo partly shown) [MP1207]", 8.44),
    ("O=C(N[C@@H]1CC[C@@]2(O)C3Cc4ccc(O)cc4[C@@]2(CCN3CC2CC2)C1)c1cccc(I)c1 [MP1601]", 8.66),
    ("O=C(NC1CCC2(O)C3Cc4ccc(O)c5c4C2(CCN3CC2CC2)C1O5)c1cccc(I)c1 (stereo not shown) [IBNtxA]", 10.27),
    ("CO[C@@]12CC[C@@H](NC(=O)c3cccc(I)c3)C3Oc4c(O)ccc5c4[C@@]31CCN(CC1CC1)C2C5 (stereo partly shown) [MP1305]", 9.13),
    ("O=C(N[C@@H]1CCC2C3Cc4ccc(O)c5c4[C@@]2(CCN3CC2CC2)C1O5)c1cccc(I)c1 (stereo partly shown) [MP1202]", 9.20),
    ("N=C(N)NCc1cccc(C(=O)N[C@@H]2CCC3C4Cc5ccc(O)c6c5[C@@]3(CCN4CC3CC3)C2O6)c1 (stereo partly shown) [MP1208]", 8.64),
    ("O=C(NC1C=CC2C3Cc4ccc(O)c5c4C2(CCN3CC2CC2)C1O5)c1cccc(I)c1 (stereo not shown) [MP1104]", 9.18),
]

---

# measured-target: rKOR (Rattus norvegicus, UniProt P34975)
# condition-parameters: vs U50,488h
The reader will find reported ΔlogRA BRET-arr rKOR values listed item by item below.
metric-name: ΔlogRA BRET-arr rKOR

# compound, measured-target, metric-name, readout-value
data = [
    ("O=C(N[C@@H]1CC[C@@]2(O)C3Cc4ccc(O)cc4[C@@]2(CCN3CC2CC2)C1)c1cccc(I)c1 [MP1601]", "rKOR (Rattus norvegicus, UniProt P34975)", "ΔlogRA BRET-arr rKOR", 0.33),
    ("O=C(N[C@@H]1CCC2C3Cc4ccc(O)c5c4[C@@]2(CCN3CC2CC2)C1O5)c1cccc(I)c1 (stereo partly shown) [MP1202]", "rKOR (Rattus norvegicus, UniProt P34975)", "ΔlogRA BRET-arr rKOR", 1.993),
    ("O=C(NC1C=CC2C3Cc4ccc(O)c5c4C2(CCN3CC2CC2)C1O5)c1cccc(I)c1 (stereo not shown) [MP1104]", "rKOR (Rattus norvegicus, UniProt P34975)", "ΔlogRA BRET-arr rKOR", 1.702),
    ("O=C(NC1CCC2(O)C3Cc4ccc(O)c5c4C2(CCN3CC2CC2)C1O5)c1cccc(I)c1 (stereo not shown) [IBNtxA]", "rKOR (Rattus norvegicus, UniProt P34975)", "ΔlogRA BRET-arr rKOR", 2.858),
]
